# System: gene editing with dCas9
# experiment.description: Screen of 322 new SSAP proteins, gene editing activity with dCas9 (Table 5)
# Type: cell-based
# condition.label: normalized
measure.name: dCas9 with SSAP activity (normalized)

{"molecule": "SSAP_111: SEQ ID NO: 280; Siminovitchia fordii (protein, listed as Siminovitchia fordii) ATNQDIKNQLANKANGNKPASPANTIAAYLKKMGPEIEKALPKHMDADRLARIALTTIRTTPKLLECNISSLMGAVMQSAQLGLEPGLIGHCYIIPYGKEATFIIGYKGMIDLARRSGQIQNIYAHAVFENDEFDYALGLHPKLEHKPAGSNRGEIIGAYAVAHFKDGGYQFEYMAKEDIEKRKSRSAAARSKHSPWATDYEEMAKKTVIRHMWKYLPISVEIQQQAIQDEVVRKDVTSEPEFIDMEDMPEVEEGQSEESEQVEAPFD", "assay.result": "−0.419"}
{"molecule": "SSAP_117: SEQ ID NO: 286; Enterocloster bolteae (protein, listed as Enterocloster bolteae) GVNVKHELEQRAAGQGASVRLTKNMTIVDMVKALEPEIRRALPAVLTPERFTRMALSSINNTPELAECTPMSFIAALLNAAQLGLEPNTPLGQAYLIPYKNKGKLECQFQLGYKGLIDLAYRTGQVQIIQAQVVREFDSFEYQYGLDSKLVHKPGEGARGEITYVYGLFKLSNGGYGFEVSNKTEMDTFAARYSKSFGSKYSPWTEDYESMAKKTVIKRVLKYAPISSDFQKALSMDETIKTGIAVDMSEIRNECLPEEAGSEAA", "assay.result": "−0.179"}
